Glucose normalisation values, listed per item
System: Mus musculus
Assay: In vivo hypoglycemic activity expressed as percent glucose normalization in db/db mice at 0.05 mg/Kg
Format: functional
Provide only the numeric value, understood in %.

// below: answered compounds
Cc1oc(-c2ccccc2)nc1Cc1cc2cc(CC(OCc3ccccc3)C(=O)O)ccc2o1 (centres undefined)    100
CCOC(Cc1ccc2oc(Cc3nc(-c4cccs4)oc3C)cc2c1)C(=O)O (centres undefined)    100
C=CCOC(Cc1ccc2oc(Cc3nc(-c4ccccc4)oc3C)cc2c1)C(=O)O (centres undefined)    91

Here is the next item to consider.
// returns Glucose normalisation for CCOC(Cc1ccc2oc(Cc3nc(-c4ccccc4)oc3C)cc2c1)C(=O)O (centres undefined) with Mus musculus; value = 97
